Origin of values: patent US20170313764A1

Collected IC90, HCVpp neutralization values appear next to each entry.
- system: E1E2 of HCV isolate AMS.3a.21071213 (genotype 3a) (Hepatitis C virus genotype 3a)
- assay-method-text: cell-based or functional assay

- binder: "AT13-021 (antibody, V domains shown) VH: QVQLVQSGAEVKKPGSSVKVSCKASGGTFNTHAFSWVRQAPGEGLEWMGGISPMSGTPNYAQKFQGRLTITADESTSTGYMELRSLTSEDTAVYYCARELIGYCTGGNCYSFGDFWGQGTLITVSS VL: EIVMTQSPATLSVSPGERATLSCRASQSVSSHLAWYQHKPGQAPRLLISGASTRAVGVPARFSGSGSGTEFTLTISSLQSEDFAVYYCHQYNTWPRGFGQGTKVDFKR"
  IC90, HCVpp neutralization: "12.3 µg/mL"
- binder: "AT12-011 (antibody, V domains shown) VH: QVQLVQSGAEVKKPGSSVKVSCKASGGTFSGYGITWVRQAPGQGLEWMGTIIPVSATETYAQRLQGRVTISADEHSTTSYMEVSSLKSEDTALYYCARHDYFWGTPLDIWGQGTMVIVSS VL: EIVLTQSPDFQSVTPKEKVTITCRASQSIGSNLHWYQQKPGQSPKLLIKYASQSFSGVPSRFSGSGSGTDFTLTINSLEAEDAATYFCHQSYNLPRTFGGGTKVEIKR"
  IC90, HCVpp neutralization: "> 50 µg/mL"
- binder: "AT12-009 (antibody, V domains shown) VH: SSVRVSCKASGDTFKTHAISWVRQAPGQGLEWVGGTVRQAPGDGLELLGGFVPILAPANDAQKFQGRVTITADGSTGPVYMDLSTLTSEDTAMYYCVTSLSEPIPRSCRGGRCYSGPFDAFGVWGQGTMVTVSS VL: ETMLTQSPVTLSVSPGERATLSCRASQSIGTNLAWYQQKPGQAPRLLIHGASTRATGVPVSFSGSGSGTEFTLTISSLQSEDFAVYYCQQYNNWPLTFGGGTKVDFKR"
  IC90, HCVpp neutralization: "5.34 µg/mL"
- binder: "AT12-007 (antibody, V domains shown) VH: QVQLEQSGAEVKKPGASVKVSCKVSGYTLTELSMHWVRQAPGKGLEWMGSFDPADGERLYAQKFQGRVIMSEDTSTDTAYMELSSLRSEDAAVYYCATAPRMTMFGVIMALDSWGQGTLVTVSS VL: DIQMTQSPSTLSASLGDRVTITCRASQNINKYLAWYQQKPGKAPKLLIYKASNLQSGVPSRFSGSGSGTDFILTISSLQPDDFATYYCQQYTTYSAWTFGQGTNVDIKR"
  IC90, HCVpp neutralization: "21.7 µg/mL"
